# System: Staphylococcus aureus ATCC 29213
# assay-overview: MIC, broth microdilution (CLSI)
# Assay type: cell-based
# assay-context: ATCC29213, S. aureus ATCC 29213, read-out: MIC
endpoint: MIC

{"columns": ["molecule", "target-of-assay", "MIC"],
 "data": [
  ["C=CC(C)(C)c1[nH]c2cc(CC=C(C)C)ccc2c1/C=C1\\NC(=O)[C@H](C)NC1=O", "Staphylococcus aureus ATCC 29213", "> 128 µg/mL"],
  ["CNC(C)C1CCC(N)C(OC2C(N)CC(N)C(OC3OCC(C)(O)C(NC)C3O)C2O)O1 (stereo not drawn) [Gentamicin, reference compound]", "Staphylococcus aureus ATCC 29213", "0.5 µg/mL"]
]}

Next molecule, please.
Give the reported MIC for C[C@@H]1NC(=O)[C@H](Cc2c[nH]c3ccccc23)NC1=O (system: Staphylococcus aureus ATCC 29213).
> 128 µg/mL

* * *

# assay-overview: in vitro
# assay-context: African green monkey
endpoint: CC50 at 48 h

GET /values?readout=CC50 at 48 h&item= CCCCCCCc1c(O)cc(CC=C(C)C)c(O)c1C=O
< 12.5 µg/mL

* * *

Below is a list of entries, each paired with its recorded MIC value.
# Test system: Pseudomonas aeruginosa ATCC 27853
# assay-overview: MIC, broth microdilution (CLSI)
# Assay type: cell-based
# assay-context: ATCC27853, P. aeruginosa ATCC 27853, read-out: MIC

{"columns": ["compound", "MIC"],
 "data": [
  ["C[C@@H]1NC(=O)[C@H](Cc2c[nH]c3ccccc23)NC1=O [Cyclo-L-Trp-L-Ala (10), cyclo-L-Trp-L-Ala]", "> 128 µg/mL"]
]}

Fill in: MIC of CNC(C)C1CCC(N)C(OC2C(N)CC(N)C(OC3OCC(C)(O)C(NC)C3O)C2O)O1 (stereo not shown) [Gentamicin, reference compound] is ___
1 µg/mL

Need MIC of CCCCCCCc1c(O)cc(CC=C(C)C)c(O)c1C=O [Flavoglaucin (5), flavoglaucin] , thanks.
> 32 µg/mL

* * *

# System: Staphylococcus aureus ATCC 29213
# assay-overview: MIC, broth microdilution (CLSI)
# Assay type: cell-based
# assay-context: ATCC29213, S. aureus ATCC 29213, read-out: MIC
endpoint: MIC (mg/L)
Write down the numeric answer in mg/L and omit the unit.

Below: 2 compounds and their reported MIC.
{"columns": ["compound", "MIC [mg/L]"],
 "data": [
  ["CC(=O)O[C@H]1C[C@@]2(C)[C@@H](C[C@@H](O)[C@H]3[C@@]4(C)CC[C@@H](O)[C@@H](C)[C@@H]4CC[C@@]32C)/C1=C(\\CCC=C(C)C)C(=O)O [Fusidic acid, fusidic acid, reference compound]", 0.12],
  ["CCC/C=C/C=C/c1c(O)cc(CC=C(C)C)c(O)c1C=O [Dihydroauroglaucin (4), dihydroauroglaucin]", 128]
]}

Lab note: next compound to report on.
Given C/C=C/C=C/CCc1c(O)cc(CC=C(C)C)c(O)c1C=O [Isodihydroauroglaucin (6), isodihydroauroglaucin] , state its recorded MIC.
64

* * *

# Tested on: Pseudomonas aeruginosa ATCC 27853
# assay-overview: MIC, broth microdilution (CLSI)
# Assay type: cell-based
# assay-context: ATCC27853, P. aeruginosa ATCC 27853, read-out: MIC
endpoint: MIC

Known results for molecules:
{"columns": ["molecule", "MIC"],
 "data": [
  ["C/C=C/C=C/CCc1c(O)cc(CC=C(C)C)c(O)c1C=O [Isodihydroauroglaucin (6), isodihydroauroglaucin]", "> 128 µg/mL"],
  ["COc1cc(O)c2c(c1)C(=O)c1cc(C)cc(O)c1C2=O", "> 32 µg/mL"]
]}

Now examine the next entry.
Value wanted: MIC (Pseudomonas aeruginosa ATCC 27853) of entry C=CC(C)(C)c1[nH]c2cc(CC=C(C)C)ccc2c1/C=C1\NC(=O)[C@H](C)NC1=O
> 128 µg/mL

* * *

# Test system: Enterococcus faecalis ATCC 29212
# assay-overview: MIC, broth microdilution (CLSI)
# Type: cell-based
# assay-context: ATCC29212, E. faecalis ATCC 29212, read-out: MIC
Consider the following compounds and their measured MIC readings.
Answer with a number only, understood to be in µg/mL.

Below, 4 compounds whose answers are already recorded.
{"columns": ["compound", "MIC [µg/mL]"],
 "data": [
  ["CC[C@H]1OC(=O)[C@H](C)[C@@H](O[C@H]2C[C@@](C)(OC)[C@@H](O)[C@H](C)O2)[C@H](C)[C@@H](O[C@@H]2O[C@H](C)C[C@H](N(C)C)[C@H]2O)[C@](C)(O)C[C@@H](C)C(=O)[C@H](C)[C@@H](O)[C@]1(C)O [Erythromycin, erythromycin, reference compound]", 2],
  ["CCC/C=C/C=C/c1c(O)cc(CC=C(C)C)c(O)c1C=O [Dihydroauroglaucin (4), dihydroauroglaucin]", 64],
  ["CN(C)[C@@H]1C(O)=C(C(N)=O)C(=O)[C@@]2(O)C(O)=C3C(=O)c4c(O)cccc4[C@@](C)(O)[C@H]3C[C@@H]12 [Tetracycline, tetracycline, reference compound]", 8],
  ["C/C=C/C=C/CCc1c(O)cc(CC=C(C)C)c(O)c1C=O [Isodihydroauroglaucin (6), isodihydroauroglaucin]", 64]
]}

Would you kindly look at the next entry?
API: value(readout=MIC, system=Enterococcus faecalis ATCC 29212) for record CC(=O)O[C@H]1C[C@@]2(C)[C@@H](C[C@@H](O)[C@H]3[C@@]4(C)CC[C@@H](O)[C@@H](C)[C@@H]4CC[C@@]32C)/C1=C(\CCC=C(C)C)C(=O)O [Fusidic acid, fusidic acid, reference compound]
4

* * *

# Tested on: Staphylococcus aureus ATCC 29213
# assay-overview: MIC, broth microdilution (CLSI)
# Type: cell-based
# assay-context: ATCC29213, S. aureus ATCC 29213, read-out: MIC
endpoint: MIC (µg/mL)
Enter your answer as a number in µg/mL; do not include the unit.

Worked cases, answers included:
{"columns": ["compound", "measured"],
 "data": [
  ["CN(C)[C@@H]1C(O)=C(C(N)=O)C(=O)[C@@]2(O)C(O)=C3C(=O)c4c(O)cccc4[C@@](C)(O)[C@H]3C[C@@H]12 [Tetracycline, tetracycline, reference compound]", 0.12],
  ["COc1cc(O)cc2cc3c(c(O)c12)C(=O)C[C@](C)(O)C3 [Asperflavin (8), asperflavin]", 64]
]}

Let us examine a further case.
Value lookup for MIC; key = CC[C@H]1OC(=O)[C@H](C)[C@@H](O[C@H]2C[C@@](C)(OC)[C@@H](O)[C@H](C)O2)[C@H](C)[C@@H](O[C@@H]2O[C@H](C)C[C@H](N(C)C)[C@H]2O)[C@](C)(O)C[C@@H](C)C(=O)[C@H](C)[C@@H](O)[C@]1(C)O [Erythromycin, erythromycin, reference compound]
0.5

* * *

# System: Pseudomonas aeruginosa ATCC 27853
# assay-overview: MIC, broth microdilution (CLSI)
# Format: cell-based
# assay-context: ATCC27853, P. aeruginosa ATCC 27853, read-out: MIC
endpoint: MIC

Past entries and their recorded results:
{"columns": ["compound", "target-of-assay", "MIC"],
 "data": [
  ["COc1cc(O)c2c(c1)C(=O)c1cc(C)c(C(=O)O)c(O)c1C2=O", "Pseudomonas aeruginosa ATCC 27853", "> 128 µg/mL"],
  ["CCC/C=C/C=C/c1c(O)cc(CC=C(C)C)c(O)c1C=O [Dihydroauroglaucin (4), dihydroauroglaucin]", "Pseudomonas aeruginosa ATCC 27853", "> 128 µg/mL"],
  ["CN(C)[C@@H]1C(O)=C(C(N)=O)C(=O)[C@@]2(O)C(O)=C3C(=O)c4c(O)cccc4[C@@](C)(O)[C@H]3C[C@@H]12 [Tetracycline, tetracycline, reference compound]", "Pseudomonas aeruginosa ATCC 27853", "8 µg/mL"]
]}

Switching to the query record.
Look up MIC with Pseudomonas aeruginosa ATCC 27853 for this compound: COc1cc(O)cc2cc3c(c(O)c12)C(=O)C[C@](C)(O)C3
> 128 µg/mL

* * *

MIC listing for selected molecules.
# Tested on: Staphylococcus aureus ATCC 29213
# assay-overview: MIC, broth microdilution (CLSI)
# Format: cell-based
# assay-context: ATCC29213, S. aureus ATCC 29213, read-out: MIC

Some molecules with known MIC results, for comparison:
{"columns": ["sample-smiles", "measured"],
 "data": [
  ["CCCCCCCc1c(O)cc(CC=C(C)C)c(O)c1C=O", "> 32 µg/mL"],
  ["COc1cc(O)c2c(c1)C(=O)c1cc(C)cc(O)c1C2=O", "> 32 µg/mL"]
]}

Would you kindly look at the next entry?
MIC for COc1cc(O)c2c(c1)C(=O)c1cc(C)c(C(=O)O)c(O)c1C2=O ?
> 128 µg/mL

These data points were gathered from paper PMC6520677.
